System: corn (Zea mays)
assay protocol: Test A postemergence
Type: in vivo
condition notes: Zea mays, post-emergence, 240 h, 125 g ai/ha, Postemergence; visual injury after approximately 10 d; 0 to 100 scale where 0 is no effect and 100 is complete control
In this section we review reported Corn plant response rating (crop injury, 0 = no effect, 100 = complete kill) at 125 g/ha values for a set of molecules.
Reply numerically in %, unit not repeated.

Here are 5 molecules together with their reported answers.
{"molecule": "CN1CC[C@H](c2ccccc2C(F)(F)F)[C@@H](C(=O)Nc2ccccc2C(F)(F)F)C1=O [Compound 1008]", "experimental value": 0}
{"molecule": "CC(C)COc1cccc([C@H]2CN(C)C(=O)[C@@H]2C(=O)Nc2ccccc2F)c1 [Compound 1028]", "experimental value": 0}
{"molecule": "COc1cc(OC)cc([C@H]2CN(C)C(=O)[C@@H]2C(=O)Nc2ccccc2F)c1 [Compound 980]", "experimental value": 0}
{"molecule": "Cc1cc([C@H]2CN(C)C(=O)[C@@H]2C(=O)Nc2ccc(F)c(F)c2F)ccc1Cl [Compound 931]", "experimental value": 70}
{"molecule": "Cc1cc([C@H]2CN(C)C(=O)[C@@H]2C(=O)Nc2ccccc2C(F)(F)F)ccc1Cl [Compound 932]", "experimental value": 20}

Notebook: CSc1ccccc1NC(=O)[C@H]1C(=O)N(C)CC[C@@H]1c1ccc(OC(F)(F)F)cc1 [Compound 1001] , Corn plant response rating (crop injury, 0 = no effect, 100 = complete kill) at 125 g/ha read as 0

Notebook: Cc1ccc([C@H]2CNC(=O)[C@@H]2C(=O)Nc2ccccc2S(C)(=O)=O)cc1C [Compound 1037] , Corn plant response rating (crop injury, 0 = no effect, 100 = complete kill) at 125 g/ha read as 0

Notebook: CCOc1cccc([C@H]2CNC(=O)[C@@H]2C(=O)Nc2ccc(F)cc2F)c1 [Compound 951] , Corn plant response rating (crop injury, 0 = no effect, 100 = complete kill) at 125 g/ha read as 0

Notebook: C=CCOc1cccc(C2CN(C)C(=O)C2C(=O)Nc2cccc(F)c2F)c1 (stereo not shown) [Compound 933] , Corn plant response rating (crop injury, 0 = no effect, 100 = complete kill) at 125 g/ha read as 40

Notebook: COc1ccc([C@H]2CN(C)C(=O)[C@@H]2C(=O)Nc2cccc(F)c2F)cc1C(F)(F)F [Compound 986] , Corn plant response rating (crop injury, 0 = no effect, 100 = complete kill) at 125 g/ha read as 80
